The measured values listed here are drawn from ChEMBL document CHEMBL1128227.

Let's look at some compounds and their measured CC50.
- Tested on: CCRF-CEM
- Procedure Text: Cytotoxical effect against CEM cell lines was determined by reduction of cellular viability
- Type: functional
- Test Parameters: Homo sapiens
// units = µM; emit number, no label

Please review the following examples before continuing.
{"Compound": "CC(CCC=C(c1cc(Cl)c(O)c(C(=O)O)c1)c1cc(Cl)c(O)c(C(=O)O)c1)[C@H]1CC[C@H]2[C@@H]3CC[C@@H]4CCCC[C@]4(C)[C@H]3CC[C@]12C (stereo not given in full)", "CC50 (µM)": 69.5}
{"Compound": "CC(CCC=C(c1cc(Cl)c(O)c(C(=O)O)c1)c1cc(Cl)c(O)c(C(=O)O)c1)[C@H]1CC[C@H]2[C@@H]3CC[C@@H]4CC(F)(F)CC[C@]4(C)[C@H]3CC[C@]12C (stereo not given in full)", "CC50 (µM)": 38.5}

Lookup: Look up CC50 with CCRF-CEM for this compound: O=C(O)c1cc(C(=CCC23CC4CC(CC(C4)C2)C3)c2cc(Cl)c(O)c(C(=O)O)c2)cc(Cl)c1O
Found: 105

----------
Measured IC50 values are reported for all entries that follow.
- System: MDCK
- Procedure Text: Antiviral activity was determined against Influenza virus A(strain Ishikawa) in MDCK cells by measuring concentration required to reduce virus induced cytopathogenicity by 50%.
- Format: functional, cell-based
- Test Parameters: Canis lupus familiaris

Solved entries (count: 4):
{"Compound": "CC(C)CCCC(C)[C@H]1CC[C@H]2[C@@H]3CCC4CC(=C(c5cc(Cl)c(O)c(C(=O)O)c5)c5cc(Cl)c(O)c(C(=O)O)c5)CC[C@]4(C)[C@H]3CC[C@]12C (stereo not given in full)", "Assay System": "MDCK", "Observed Result": "14 µg/mL"}
{"Compound": "O=C(O)c1cc(C(=CCC23CC4CC(CC(C4)C2)C3)c2cc(Cl)c(O)c(C(=O)O)c2)cc(Cl)c1O", "Assay System": "MDCK", "Observed Result": "> 4 µg/mL"}
{"Compound": "CC(CCC=C(c1cc(Cl)c(O)c(C(=O)O)c1)c1cc(Cl)c(O)c(C(=O)O)c1)[C@H]1CC[C@H]2[C@@H]3CC[C@@H]4CC(F)(F)CC[C@]4(C)[C@H]3CC[C@]12C (stereo not given in full)", "Assay System": "MDCK", "Observed Result": "> 12 µg/mL"}
{"Compound": "CCCCCC=C(c1cc(Cl)c(O)c(C(=O)NO)c1)c1cc(Cl)c(O)c(C(=O)NO)c1", "Assay System": "MDCK", "Observed Result": "> 4 µM"}

Lookup: Name the reported IC50 value associated with the compound CC(CCC=C(c1cc(Cl)c(O)c(C(=O)O)c1)c1cc(Cl)c(O)c(C(=O)O)c1)[C@H]1CC[C@H]2[C@@H]3CC[C@@H]4CCCC[C@]4(C)[C@H]3CC[C@]12C (stereo not given in full)
Found: > 12 µg/mL

----------
- System: MT4
- Procedure Text: Viral cytopathicity against HIV -I (HTLV-IIIb) strain determined in MT-4 cells
- Assay type: functional, cell-based
- Test Parameters: Homo sapiens
Quantity Kind: IC50 (µM)
Answer format: numeric, µM implied, no suffix.

{"Compound": "CC(C)CCCC(C)[C@H]1CC[C@H]2[C@@H]3CCC4C[C@@H](CCC=C(c5cc(Cl)c(O)c(C(=O)O)c5)c5cc(Cl)c(O)c(C(=O)O)c5)CC[C@]4(C)[C@H]3CC[C@]12C (stereo partly drawn)", "Quantity Kind": "IC50", "Unit": "µM", "Observed Result": 1.8}

Lookup: Query (compound): CC(CCC=C(c1cc(Cl)c(O)c(C(=O)O)c1)c1cc(Cl)c(O)c(C(=O)O)c1)[C@H]1CC[C@H]2[C@@H]3CC[C@@H]4CC(F)(F)CC[C@]4(C)[C@H]3CC[C@]12C (stereo partly drawn) ; field requested: IC50
Found: 27.7

----------
# UniProt Q7ZJM1: IC50 values follow
# Sequence (Q7ZJM1 whole entry): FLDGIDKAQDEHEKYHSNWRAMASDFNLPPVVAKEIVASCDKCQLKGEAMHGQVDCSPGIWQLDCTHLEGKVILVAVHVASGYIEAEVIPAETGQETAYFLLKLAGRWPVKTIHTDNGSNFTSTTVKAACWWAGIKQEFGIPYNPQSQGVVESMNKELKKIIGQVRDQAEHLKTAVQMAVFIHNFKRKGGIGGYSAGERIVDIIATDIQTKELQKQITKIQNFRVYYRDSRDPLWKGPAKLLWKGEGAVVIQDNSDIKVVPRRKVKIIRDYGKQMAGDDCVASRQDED
Report the figure in µM without appending any unit label.

These recorded examples may help you get a feel for the data.
{"Compound": "O=C(O)c1cc(C(=CCC23CC4CC(CC(C4)C2)C3)c2cc(Cl)c(O)c(C(=O)O)c2)cc(Cl)c1O", "Unit": "µM", "IC50": 7}
{"Compound": "CC(C)CCCC(C)[C@H]1CC[C@H]2[C@@H]3CCC4C[C@@H](CCC=C(c5cc(Cl)c(O)c(C(=O)O)c5)c5cc(Cl)c(O)c(C(=O)O)c5)CC[C@]4(C)[C@H]3CC[C@]12C (stereo partly specified)", "Unit": "µM", "IC50": 25}
{"Compound": "CC(CCC=C(c1cc(Cl)c(O)c(C(=O)O)c1)c1cc(Cl)c(O)c(C(=O)O)c1)[C@H]1CC[C@H]2[C@@H]3CC[C@@H]4CC(F)(F)CC[C@]4(C)[C@H]3CC[C@]12C (stereo partly specified)", "Unit": "µM", "IC50": 2.2}
{"Compound": "CC(CCC=C(c1cc(Cl)c(O)c(C(=O)O)c1)c1cc(Cl)c(O)c(C(=O)O)c1)[C@H]1CC[C@H]2[C@@H]3CC[C@@H]4CCCC[C@]4(C)[C@H]3CC[C@]12C (stereo partly specified)", "Unit": "µM", "IC50": 2.2}

Now turn to the next compound.
Lookup: Record lookup: for UniProt Q7ZJM1, what IC50 belongs to CCCCCC=C(c1cc(Cl)c(O)c(C(=O)NO)c1)c1cc(Cl)c(O)c(C(=O)NO)c1 ?
Found: 4

----------
- Assay System: Human immunodeficiency virus type 1 protease (Human immunodeficiency virus 1)
pIC50: −log10 of the molar value.
# label = true if pIC50 >= 6 else false

Examples from the recorded data:
{"Molecule": "CCCCCC=C(c1cc(Cl)c(O)c(C(=O)NO)c1)c1cc(Cl)c(O)c(C(=O)NO)c1", "Class Assignment": "false"}
{"Molecule": "CC(C)CCCC(C)[C@H]1CC[C@H]2[C@@H]3CCC4CC(=C(c5cc(Cl)c(O)c(C(=O)O)c5)c5cc(Cl)c(O)c(C(=O)O)c5)CC[C@]4(C)[C@H]3CC[C@]12C (stereo partly specified)", "Class Assignment": "true"}
{"Molecule": "CC(CCC=C(c1cc(Cl)c(O)c(C(=O)O)c1)c1cc(Cl)c(O)c(C(=O)O)c1)[C@H]1CC[C@H]2[C@@H]3CC[C@@H]4CC(F)(F)CC[C@]4(C)[C@H]3CC[C@]12C (stereo partly specified)", "Class Assignment": "true"}

Lookup: Hi team, for O=C(O)c1cc(C(=CCC23CC4CC(CC(C4)C2)C3)c2cc(Cl)c(O)c(C(=O)O)c2)cc(Cl)c1O , is the recorded pIC50 at or above 6?
Found: true

----------
- System: MT4
- Procedure Text: Viral cytopathicity against HIV -I (HTLV-IIIb) strain determined in MT-4 cells
- Type: functional, cell-based
- Test Parameters: Homo sapiens
IC50 values for the compounds below.
Express the result in µM but write the number alone.

// known answers, use as guide
{"Compound": "CC(CCC=C(c1cc(Cl)c(O)c(C(=O)O)c1)c1cc(Cl)c(O)c(C(=O)O)c1)[C@H]1CC[C@H]2[C@@H]3CC[C@@H]4CCCC[C@]4(C)[C@H]3CC[C@]12C (stereo partly drawn)", "Observed Result": 27.2}
{"Compound": "CCCCCC=C(c1cc(Cl)c(O)c(C(=O)NO)c1)c1cc(Cl)c(O)c(C(=O)NO)c1", "Observed Result": 21.9}

Turning now to a further record.
Lookup: Lab note: need IC50 for CC(C)CCCC(C)[C@H]1CC[C@H]2[C@@H]3CCC4CC(=C(c5cc(Cl)c(O)c(C(=O)O)c5)c5cc(Cl)c(O)c(C(=O)O)c5)CC[C@]4(C)[C@H]3CC[C@]12C (stereo partly drawn) on MT4, anyone have it?
Found: 2.5

----------
IC50 reference
- Test system: HEL
- Procedure Text: Antiviral activity was determined against Vaccinia virus in HEL cells by measuring concentration required to reduce virus induced cytopathogenicity by 50%.
- Assay type: functional, cell-based
- Test Parameters: Homo sapiens

Lookup: What value of IC50 has been recorded for this entry: CC(CCC=C(c1cc(Cl)c(O)c(C(=O)O)c1)c1cc(Cl)c(O)c(C(=O)O)c1)[C@H]1CC[C@H]2[C@@H]3CC[C@@H]4CCCC[C@]4(C)[C@H]3CC[C@]12C (stereo partly specified)
Found: 13 µg/mL

Lookup: Same question, CC(C)CCCC(C)[C@H]1CC[C@H]2[C@@H]3CCC4C[C@@H](CCC=C(c5cc(Cl)c(O)c(C(=O)O)c5)c5cc(Cl)c(O)c(C(=O)O)c5)CC[C@]4(C)[C@H]3CC[C@]12C (stereo partly specified) this time
Found: > 20 µg/mL

Lookup: Would you kindly repeat that for O=C(O)c1cc(C(=CCC23CC4CC(CC(C4)C2)C3)c2cc(Cl)c(O)c(C(=O)O)c2)cc(Cl)c1O ?
Found: > 5 µg/mL

Lookup: Entry to check: CC(CCC=C(c1cc(Cl)c(O)c(C(=O)O)c1)c1cc(Cl)c(O)c(C(=O)O)c1)[C@H]1CC[C@H]2[C@@H]3CC[C@@H]4CC(F)(F)CC[C@]4(C)[C@H]3CC[C@]12C (stereo partly specified)
Found: 20 µg/mL

Lookup: Next record, please: CCCCCC=C(c1cc(Cl)c(O)c(C(=O)NO)c1)c1cc(Cl)c(O)c(C(=O)NO)c1
Found: 5 µM

Lookup: Now give it for CC(C)CCCC(C)[C@H]1CC[C@H]2[C@@H]3CCC4CC(=C(c5cc(Cl)c(O)c(C(=O)O)c5)c5cc(Cl)c(O)c(C(=O)O)c5)CC[C@]4(C)[C@H]3CC[C@]12C (stereo partly specified) too.
Found: > 20 µg/mL
